Cannabinoid receptor 1 (Homo sapiens, UniProt P21554) data, read-out log10 Ki
Sequence (P21554 whole entry): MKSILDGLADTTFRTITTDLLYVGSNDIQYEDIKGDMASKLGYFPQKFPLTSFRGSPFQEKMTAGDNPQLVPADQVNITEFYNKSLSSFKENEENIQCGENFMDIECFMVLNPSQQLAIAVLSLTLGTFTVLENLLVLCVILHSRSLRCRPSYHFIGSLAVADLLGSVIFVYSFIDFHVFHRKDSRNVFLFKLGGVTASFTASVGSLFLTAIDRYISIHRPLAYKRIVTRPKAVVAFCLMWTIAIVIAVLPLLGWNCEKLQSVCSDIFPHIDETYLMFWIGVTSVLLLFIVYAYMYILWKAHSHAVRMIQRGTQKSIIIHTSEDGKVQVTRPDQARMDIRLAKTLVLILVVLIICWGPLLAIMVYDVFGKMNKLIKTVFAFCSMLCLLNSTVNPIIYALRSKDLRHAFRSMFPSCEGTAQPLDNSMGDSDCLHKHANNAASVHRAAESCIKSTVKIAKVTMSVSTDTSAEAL
Hi team, quick reminder: these entries are log10 of Ki (nM).

For the compound CC1=CC[C@@H]2[C@@H](C1)c1c(O)cc(C(C)(C)CCCCC(=O)NN3CCCCC3)cc1OC2(C)C , the measured log10 Ki on Cannabinoid receptor 1 (Homo sapiens, UniProt P21554) was 0.08

For the compound CC1=CC[C@@H]2[C@@H](C1)c1c(O)cc(C(C)(C)CCCCC(C#N)c3ccccc3)cc1OC2(C)C (some centres undefined) , the measured log10 Ki on Cannabinoid receptor 1 (Homo sapiens, UniProt P21554) was 0.96

For the compound CCN(CC)C(=O)CCCCC(C)(C)c1cc(O)c2c(c1)OC(C)(C)[C@@H]1CC=C(C)C[C@@H]21 , the measured log10 Ki on Cannabinoid receptor 1 (Homo sapiens, UniProt P21554) was 1.11

For the compound CC1=CC[C@@H]2[C@@H](C1)c1c(O)cc(C(C)(C)CCCCOc3ccc(C#N)cc3)cc1OC2(C)C , the measured log10 Ki on Cannabinoid receptor 1 (Homo sapiens, UniProt P21554) was 0.48

For the compound CC1=CC[C@@H]2[C@@H](C1)c1c(O)cc(C(C)(C)CCCCC#N)cc1OC2(C)C , the measured log10 Ki on Cannabinoid receptor 1 (Homo sapiens, UniProt P21554) was -0.44

For the compound CC1=CC[C@@H]2[C@@H](C1)c1c(O)cc(C(C)(C)CCCCC(=O)Nc3ccc(Cl)cc3)cc1OC2(C)C , the measured log10 Ki on Cannabinoid receptor 1 (Homo sapiens, UniProt P21554) was 2.27

For the compound CC1=CC[C@@H]2[C@@H](C1)c1c(O)cc(C(C)(C)CCCCC(=O)Nc3ccc(Cl)cc3Cl)cc1OC2(C)C , the measured log10 Ki on Cannabinoid receptor 1 (Homo sapiens, UniProt P21554) was 1.26

For the compound CC1=CC[C@@H]2[C@@H](C1)c1c(O)cc(C(C)(C)CCCCCC#N)cc1OC2(C)C , the measured log10 Ki on Cannabinoid receptor 1 (Homo sapiens, UniProt P21554) was -0.22

For the compound CC1=CC[C@@H]2[C@@H](C1)c1c(O)cc(C(C)(C)CCCCC(=O)NCCc3ccc(S(N)(=O)=O)cc3)cc1OC2(C)C , the measured log10 Ki on Cannabinoid receptor 1 (Homo sapiens, UniProt P21554) was 1.46

For the compound CC1=CC[C@@H]2[C@@H](C1)c1c(O)cc(C(C)(C)CCCCC(=O)Nc3ccc(S(N)(=O)=O)cc3)cc1OC2(C)C , the measured log10 Ki on Cannabinoid receptor 1 (Homo sapiens, UniProt P21554) was 1.28

For the compound CC1=CC[C@@H]2[C@@H](C1)c1c(O)cc(C(C)(C)CCCC(O)C#N)cc1OC2(C)C (some centres undefined) , the measured log10 Ki on Cannabinoid receptor 1 (Homo sapiens, UniProt P21554) was 1.11

For the compound CC1=CC[C@@H]2[C@@H](C1)c1c(O)cc(C(C)(C)CCCCC(=O)N(C)C)cc1OC2(C)C , the measured log10 Ki on Cannabinoid receptor 1 (Homo sapiens, UniProt P21554) was -0.07

For the compound CCCCCCC(C)(C)c1cc(O)c2c(c1)OC(C)(C)[C@@H]1CC=C(C)C[C@@H]21 , the measured log10 Ki on Cannabinoid receptor 1 (Homo sapiens, UniProt P21554) was -0.11

For the compound CC1=CC[C@@H]2[C@@H](C1)c1c(O)cc(C(C)(C)CCCCC(=O)NCc3ccc(S(N)(=O)=O)cc3)cc1OC2(C)C , the measured log10 Ki on Cannabinoid receptor 1 (Homo sapiens, UniProt P21554) was 1.78
